Biological target: Troponin I, cardiac muscle (Homo sapiens) + Troponin T, cardiac muscle (Homo sapiens) + Troponin C, slow skeletal and cardiac muscles (Homo sapiens) (UniProt P19429+P45379+P63316)
Experiment: cardiac RTF calcium sensitivity inhibitors, primary screen, biochemical, IANBD-TnC fluorescence, EC70 calcium (AID 493244);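 note: assay run at fixed EC70 calcium of 1.6 mM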
Conditions: IANBD-labeled cardiac RTF, Ca2+ fluorescence; at 7.15 µM; active compounds read high
Hit rate of the full screen: of about 340,000 compounds, about 390 (0.11%) were called active. Shown is part of a subset that was picked to be rich in actives.
Documented inhibition across a set of compounds
Give the value in % but do not write % after it.

As a guide, the following entries are already answered.
COc1ccc2c(c1O)-c1cccc3c1[C@@H](C2)N(C)CC3 = 4.82
COC(=O)C1=C(c2ccccc2)C[C@@H]2CC[C@H]1N2C(=O)N1CCCCC1 = 4.81
COC1=C[C@@H]2[C@@H]3Cc4ccc(OC)c(O)c4[C@]2(CCN3C)CC1=O = 19.3

Could you now consider this next compound?
Kindly indicate its recorded inhibition. Item: COc1ccc2c(c1)[C@]13CCCCC1C(C2)N(C)CC3 (some centres undefined) -1.69
